This section presents compounds with their documented hERG current change (%, negative = inhibition) at 10uM values.
- subject_of_test: human ether-à-go-go-related gene (hERG) potassium channel (human, UniProt Q12809)
- Sequence (Q12809 whole entry, looked up): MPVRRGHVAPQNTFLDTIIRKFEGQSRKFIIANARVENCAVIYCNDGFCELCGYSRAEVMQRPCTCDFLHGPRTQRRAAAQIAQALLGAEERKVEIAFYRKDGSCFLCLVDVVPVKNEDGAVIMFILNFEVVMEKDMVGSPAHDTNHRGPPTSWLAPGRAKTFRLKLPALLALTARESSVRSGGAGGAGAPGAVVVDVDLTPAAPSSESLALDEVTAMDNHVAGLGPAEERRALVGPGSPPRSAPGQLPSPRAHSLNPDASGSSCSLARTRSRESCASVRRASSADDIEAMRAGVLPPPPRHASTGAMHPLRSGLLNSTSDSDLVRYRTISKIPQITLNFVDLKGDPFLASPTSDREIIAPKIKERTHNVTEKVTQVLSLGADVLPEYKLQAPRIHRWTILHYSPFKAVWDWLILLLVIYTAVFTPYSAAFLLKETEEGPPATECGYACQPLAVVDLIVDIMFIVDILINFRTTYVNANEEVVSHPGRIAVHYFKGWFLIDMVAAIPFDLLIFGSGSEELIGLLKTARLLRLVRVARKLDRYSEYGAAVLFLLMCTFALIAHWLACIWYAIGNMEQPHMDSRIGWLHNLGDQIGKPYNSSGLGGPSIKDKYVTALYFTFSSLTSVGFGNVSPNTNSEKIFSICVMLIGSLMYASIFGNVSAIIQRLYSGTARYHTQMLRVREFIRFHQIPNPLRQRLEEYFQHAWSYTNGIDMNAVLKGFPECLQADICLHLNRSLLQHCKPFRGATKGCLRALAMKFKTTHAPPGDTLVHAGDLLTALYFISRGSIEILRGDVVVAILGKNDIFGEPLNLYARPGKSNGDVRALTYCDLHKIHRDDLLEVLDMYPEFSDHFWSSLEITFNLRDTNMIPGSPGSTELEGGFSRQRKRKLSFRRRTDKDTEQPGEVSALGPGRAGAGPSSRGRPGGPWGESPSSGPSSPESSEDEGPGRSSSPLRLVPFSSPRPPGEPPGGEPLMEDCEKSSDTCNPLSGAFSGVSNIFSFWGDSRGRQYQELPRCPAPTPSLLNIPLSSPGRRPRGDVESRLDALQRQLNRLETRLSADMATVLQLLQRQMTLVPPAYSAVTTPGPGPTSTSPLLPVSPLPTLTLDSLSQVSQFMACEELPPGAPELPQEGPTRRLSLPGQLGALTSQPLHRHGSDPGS
- experiment_notes: primary screen, population patch clamp on CHO cells stably expressing hERG; higher = less effect of the substance;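 note: peak tail current of the secondary pulse compared with the same well before compound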
In all, about 310,000 compounds went through this assay and about 14,000 (4.5%) showed an effect of 50% or more. The effect is printed as a negative number. Only a selection was taken, and strong results are over-represented in it overall.
Please give a number only; it is taken to be in %.

// solved cases for hERG current change (%, negative = inhibition) at 10uM follow
INSERT INTO assay_data (compound, subject_of_test, quantity_unit, val) VALUES
  ('COCCCNCCOCCOc1ccc(Cl)cc1C(C)(C)C.O=C(O)C(=O)O', 'human ether-à-go-go-related gene (hERG) potassium channel (human, UniProt Q12809)', '%', -50.6),
  ('CC(C)(C)NCCCOc1ccc(Cl)cc1C(C)(C)C.O=C(O)C(=O)O', 'human ether-à-go-go-related gene (hERG) potassium channel (human, UniProt Q12809)', '%', 1.96),
  ('COCCCNCCCOc1ccc(Cl)cc1Br', 'human ether-à-go-go-related gene (hERG) potassium channel (human, UniProt Q12809)', '%', -39.2);

Give its hERG current change (%, negative = inhibition) at 10uM value. Item: C=CCNCCCOc1ccc(Cl)cc1C(C)(C)C.O=C(O)C(=O)O
-60.8

Give its hERG current change (%, negative = inhibition) at 10uM value. Item: CC1(C)Cc2c(c(N3CCOCC3)nc3sc(C(N)=O)c(N)c23)CO1
-5.66

Give its hERG current change (%, negative = inhibition) at 10uM value. Item: CC(O)CNCCCOc1ccc(Cl)cc1C(C)(C)C.O=C(O)C(=O)O (stereo not drawn)
-15.9

###

- subject_of_test: human ether-à-go-go-related gene (hERG) potassium channel (human, UniProt Q12809)
- experiment_notes: primary screen, population patch clamp on CHO cells stably expressing hERG; higher = less effect of the substance
Hit rate of the full screen: of about 310,000 compounds, about 14,000 (4.5%) showed an effect of 50% or more. The effect is printed as a negative number. The sample as a whole holds a higher share of strong results than the screen did.
quantity_name: hERG current change (%, negative = inhibition) at 10uM
Write the numeric value and follow it with the unit.

// solved cases for hERG current change (%, negative = inhibition) at 10uM follow
INSERT INTO results (compound, val) VALUES
  ('CN=c1sc2ccccc2n1CC(O)COc1ccccc1 (stereo not shown)', '-57.5%'),
  ('O=C(CSc1nc2[nH]ncc2c(=O)[nH]1)NCCc1ccccc1', '26.9%'),
  ('CCOc1cc(CN2CCN(c3cccc(C(F)(F)F)c3)CC2)ccc1OC', '-16.6%');

What value of hERG current change (%, negative = inhibition) at 10uM on human ether-à-go-go-related gene (hERG) potassium channel (human, UniProt Q12809) does N#Cc1c(C(F)(F)F)cc(-c2ccc(F)cc2)nc1SCC(=O)O have?
6.06%

What value of hERG current change (%, negative = inhibition) at 10uM on human ether-à-go-go-related gene (hERG) potassium channel (human, UniProt Q12809) does CC(C)CCNC(=O)C1CCN(S(=O)(=O)c2ccc3c(c2)CC(C)N3C(=O)C2CCC2)CC1 (stereo not shown) have?
-12.7%

What value of hERG current change (%, negative = inhibition) at 10uM on human ether-à-go-go-related gene (hERG) potassium channel (human, UniProt Q12809) does CCOC(=O)N1CCN(Cc2nc(N)nc(Nc3ccc(Cl)cc3)n2)CC1 have?
-72.4%

What value of hERG current change (%, negative = inhibition) at 10uM on human ether-à-go-go-related gene (hERG) potassium channel (human, UniProt Q12809) does CCN=c1sc2ccccc2n1CC(O)COc1ccccc1 (stereo not shown) have?
-44%

What value of hERG current change (%, negative = inhibition) at 10uM on human ether-à-go-go-related gene (hERG) potassium channel (human, UniProt Q12809) does CCOC(=O)N1CCN(Cc2nc(N)nc(Nc3ccc(C)cc3C)n2)CC1 have?
-16.7%

What value of hERG current change (%, negative = inhibition) at 10uM on human ether-à-go-go-related gene (hERG) potassium channel (human, UniProt Q12809) does CCOC(=O)CN1C(=O)C(C)(C)Oc2ccc(C(=O)Nc3ccccc3OC)cc21 have?
-6.76%

What value of hERG current change (%, negative = inhibition) at 10uM on human ether-à-go-go-related gene (hERG) potassium channel (human, UniProt Q12809) does CCOc1cc(CN2CCN(c3cccc(C(F)(F)F)c3)CC2)ccc1O have?
-73%

What value of hERG current change (%, negative = inhibition) at 10uM on human ether-à-go-go-related gene (hERG) potassium channel (human, UniProt Q12809) does Cc1ccc(-n2c(N)cc(=O)nc2SCC(=O)N2CCN(c3ccccc3)CC2)cc1 have?
-0.877%

What value of hERG current change (%, negative = inhibition) at 10uM on human ether-à-go-go-related gene (hERG) potassium channel (human, UniProt Q12809) does COc1ccc([C@@H]2[C@@H]3C(=O)N(C(C)(C)C)C(=O)[C@@H]3[C@]3(Cc4ccccc4)C(=O)N(c4ccc(C)cc4)C(=O)N23)cc1 have?
2.04%

What value of hERG current change (%, negative = inhibition) at 10uM on human ether-à-go-go-related gene (hERG) potassium channel (human, UniProt Q12809) does O=C(NC(=S)Nc1ccccc1C(=O)O)c1ccc(-c2ccc(Br)cc2)o1 have?
28.3%

###

This section presents compounds with their documented hERG current change (%, negative = inhibition) at 10uM values.
- subject_of_test: human ether-à-go-go-related gene (hERG) potassium channel (human, UniProt Q12809)
- experiment_notes: primary screen, population patch clamp on CHO cells stably expressing hERG; higher = less effect of the substance
In all, about 310,000 compounds went through this assay and about 14,000 (4.5%) showed an effect of 50% or more. Effects have a minus sign here. The list comes from a sample in which strong results are over-represented; it also holds close analogues and randomly drawn compounds.
Please give a number only; it is taken to be in %.

// solved cases for hERG current change (%, negative = inhibition) at 10uM follow
INSERT INTO measurements (compound, quantity_unit, val) VALUES
  ('O=C(O)/C=C/c1cn(-c2ccccc2)nc1-c1ccccc1', '%', 3.71),
  ('O=C(CC12CC3CC(CC(C3)C1)C2)N1CCCOC1', '%', -3.81),
  ('O=C(CSc1nnc(NCc2ccccc2)s1)NC1CCS(=O)(=O)C1 (centres unmarked)', '%', 10.1);

Give its hERG current change (%, negative = inhibition) at 10uM value. Item: O=C(COc1ccc(F)cc1)Nc1ccc(-n2cnnn2)cc1
-49.5

Give its hERG current change (%, negative = inhibition) at 10uM value. Item: CCNc1nc2[nH]c(=O)c3c(c2s1)OC(N)=C(C#N)C3c1ccc(C)cc1 (centres unmarked)
1.97

Give its hERG current change (%, negative = inhibition) at 10uM value. Item: Cc1ccc(C(=O)NCCSC2CCCCC2)cc1S(=O)(=O)Nc1ccccc1
-2.9

Give its hERG current change (%, negative = inhibition) at 10uM value. Item: COc1ccc(NC(=O)c2ccc(-c3ccc([N+](=O)[O-])cc3)o2)cc1
-33.1

Give its hERG current change (%, negative = inhibition) at 10uM value. Item: CC(=O)N1CCN(Cc2nc3cc(NC(=O)c4ccccc4C)ccc3n2C)CC1
10.2

Give its hERG current change (%, negative = inhibition) at 10uM value. Item: COc1ccccc1C(=O)Nc1ccc2c(c1)nc(CN1CCN(C(C)=O)CC1)n2C
-80

Give its hERG current change (%, negative = inhibition) at 10uM value. Item: O=C(COc1ccc2c(c1)CCC2)N1CCN(c2ccc(F)cc2)CC1
-2.53

Give its hERG current change (%, negative = inhibition) at 10uM value. Item: COc1ccc(CCNC(=O)c2ccc(-c3ccc([N+](=O)[O-])cc3)o2)cc1OC
-60.7

Give its hERG current change (%, negative = inhibition) at 10uM value. Item: Cn1c(CN2CCCCC2)nc2cc(NC(=O)c3ccccc3Cl)ccc21
-8.74

Give its hERG current change (%, negative = inhibition) at 10uM value. Item: O=C(COc1ccc(-n2cnnn2)cc1)N1CCN(c2ccc(F)cc2)CC1
-71.5

Give its hERG current change (%, negative = inhibition) at 10uM value. Item: CCc1ccc(C2C(=O)c3ccccc3C2=O)cc1
-3.18

Give its hERG current change (%, negative = inhibition) at 10uM value. Item: COc1ccccc1C(=O)Nc1ccc2c(c1)nc(CN1CCCCC1)n2C
-21.8

Give its hERG current change (%, negative = inhibition) at 10uM value. Item: COc1ccc(CCNC(=O)Cc2ccc([N+](=O)[O-])cc2)cc1OC
-11.6

Give its hERG current change (%, negative = inhibition) at 10uM value. Item: COc1ccc(CCNC(=O)c2ccc(-c3cccc([N+](=O)[O-])c3)o2)cc1OC
-26.7
